Molecular target: Human recombinant trypsin (Homo sapiens, UniProt P07477)
Construct: purchased Wako Pure Chemical Industries, Ltd. 206-17171
Assay: Human trypsin inhibition test
Format: biochemical
Conditions: compound concentration 100 nM; 20 minutes after reaction start; read-out: Inhibition rate (trypsin)
Description: (Test Example 2): Human Trypsin Inhibition Test Human recombinant trypsin (manufactured by Wako Pure Chemical Industries, Ltd., code no.: 206-17171) was diluted with an assay buffer (0.1 M Tris-HCl (pH8.0), 0.15 M NaCl, 10 mM CaCl2, 0.05% Brij35) to prepare a 10 ng/mL enzyme solution. […] Fluorescence intensities at excitation wavelength 355 nm and fluorescence wavelength of 460 nm were measured by using a fluorescence plate reader (Flex station 3) (Test compound addition group). […]
Structures can show the parent of a compound that is named as a salt.
Reported inhibition at 0.1 µM is given for each of the following compounds.
propertyMeasured: inhibition at 0.1 µM

[
  {
    "compound": "N=C(N)Nc1ccc2c(c1)CCCOc1c(cccc1C(=O)N(CCOCCOCCN(C(=O)c1cccc3c1OCCCc1cc(NC(=N)N)ccc1C(=O)O3)[C@H](CC(=O)O)C(=O)O)[C@H](CC(=O)O)C(=O)O)OC2=O [21-(b), trifluoroacetate]",
    "assayResult": "≥ 50%"
  },
  {
    "compound": "N=C(N)Nc1ccc(C(=O)Oc2ccc(CNS(=O)(=O)N(CCOCCOCCOCCOCCOCCOCCN([C@@H](CC(=O)O)C(=O)O)S(=O)(=O)NCc3ccc(OC(=O)c4ccc(NC(=N)N)cc4)cc3)[C@@H](CC(=O)O)C(=O)O)cc2)cc1 [6-(b), trifluoroacetate]",
    "assayResult": "≥ 50%"
  },
  {
    "compound": "N=C(N)Nc1ccc(C(=O)Oc2ccc(COC(=O)N(CCCCCCCCCCCCN(C(=O)OCc3ccc(OC(=O)c4ccc(NC(=N)N)cc4)cc3)C(CC(=O)O)C(=O)O)C(CC(=O)O)C(=O)O)cc2)cc1 (stereo not drawn)",
    "assayResult": "≥ 50%"
  }
]

###

biological target: Human recombinant trypsin (Homo sapiens); construct: purchased Wako Pure Chemical Industries, Ltd. 206-17171; experiment: Human trypsin inhibition test; type: biochemical; details: compound concentration 1 nM; 20 minutes after reaction start; read-out: Inhibition rate (trypsin)
Where a name gives a salt, the structure may show the parent alone.

[
  {
    "compound": "N=C(N)Nc1ccc(C(=O)Oc2ccc(CNS(=O)(=O)N(Cc3cccc(C(=O)NCCOCCOCCOCCOCCNC(=O)c4cccc(CN([C@@H](CC(=O)O)C(=O)O)S(=O)(=O)NCc5ccc(OC(=O)c6ccc(NC(=N)N)cc6)cc5)c4)c3)[C@@H](CC(=O)O)C(=O)O)cc2)cc1 [18-(b)]",
    "inhibition at 0.001 µM": "≥ 50%"
  },
  {
    "compound": "N=C(N)Nc1ccc(C(=O)Oc2ccc(CNS(=O)(=O)N(CCCCN([C@@H](CC(=O)O)C(=O)O)S(=O)(=O)NCc3ccc(OC(=O)c4ccc(NC(=N)N)cc4)cc3)[C@@H](CC(=O)O)C(=O)O)cc2)cc1 [8-(b), trifluoroacetate]",
    "inhibition at 0.001 µM": "≥ 50%"
  },
  {
    "compound": "N=C(N)Nc1ccc(C(=O)Oc2ccc(CNS(=O)(=O)N(CCOCCOCCN(C(CC(=O)O)CC(=O)O)S(=O)(=O)NCc3ccc(OC(=O)c4ccc(NC(=N)N)cc4)cc3)C(CC(=O)O)CC(=O)O)cc2)cc1 [23-(c)]",
    "inhibition at 0.001 µM": "≥ 50%"
  },
  {
    "compound": "N=C(N)Nc1ccc(C(=O)Oc2ccc(CNS(=O)(=O)N(CCOCCN([C@@H](CC(=O)O)C(=O)O)S(=O)(=O)NCc3ccc(OC(=O)c4ccc(NC(=N)N)cc4)cc3)[C@@H](CC(=O)O)C(=O)O)cc2)cc1 [1-(b)]",
    "inhibition at 0.001 µM": "≥ 50%"
  }
]

These entries and their values trace back to patent US11465965B2.
